self-splicing fitness (ln) for assorted sequences
measurement.description: self-splicing fitness, log relative to wild type (ln ratio); higher = more splicing; Tetrahymena group I intron in knt gene, E. coli kanamycin selection, DiMSum; sequences stand for … in CUCUCU…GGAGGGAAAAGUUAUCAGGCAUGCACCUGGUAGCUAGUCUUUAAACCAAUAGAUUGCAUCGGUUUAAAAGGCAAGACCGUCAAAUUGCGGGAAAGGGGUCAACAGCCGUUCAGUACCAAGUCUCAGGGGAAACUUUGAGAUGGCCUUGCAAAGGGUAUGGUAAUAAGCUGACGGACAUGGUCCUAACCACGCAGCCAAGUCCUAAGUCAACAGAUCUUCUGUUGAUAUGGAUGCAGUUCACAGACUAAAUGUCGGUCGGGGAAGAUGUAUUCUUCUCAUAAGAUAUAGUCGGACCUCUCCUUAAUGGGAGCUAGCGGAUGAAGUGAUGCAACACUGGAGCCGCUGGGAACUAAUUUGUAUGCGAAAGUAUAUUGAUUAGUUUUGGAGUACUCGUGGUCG;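 also: selection with 25 µg/mL kanamycin versus none on LB agar overnight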
experimental.parameters: 30 °C
quantity.kind: self-splicing fitness (ln)

[[record]]
residue_sequence = "AAUCAGCAAUAUUACGUACG"
measured_result = -0.91

[[record]]
residue_sequence = "GUCAAGCAAUAUUACGUGUA"
measured_result = -1.8

[[record]]
residue_sequence = "UUUAAGCAAUAUUACGACCG"
measured_result = -0.889

[[record]]
residue_sequence = "CUUUAGCAAUAUUACGGGGA"
measured_result = -2.88

[[record]]
residue_sequence = "GACAAGCAAUAUUACGGCGC"
measured_result = -0.29

[[record]]
residue_sequence = "UACAAGCAAUAUUACGCGAG"
measured_result = -1.62

[[record]]
residue_sequence = "GGAUAGCAAUAUUACGCGAA"
measured_result = -1.69

[[record]]
residue_sequence = "GCGAAGCAAUAUUACGUCCA"
measured_result = -1.16

[[record]]
residue_sequence = "CGGCAGCAAUAUUACGUUUC"
measured_result = -3.29

[[record]]
residue_sequence = "GAGCAGCAAUAUUACGCUGG"
measured_result = -3

[[record]]
residue_sequence = "GCGCAGCAAUAUUACGUCUG"
measured_result = -2.4

[[record]]
residue_sequence = "CGGCAGCAAUAUUACGCUCU"
measured_result = -2.11

[[record]]
residue_sequence = "CGCAAGCAAUAUUACGCAGU"
measured_result = -3.23

[[record]]
residue_sequence = "UAUGAGCAAUAUUACGGCGA"
measured_result = -0.815

[[record]]
residue_sequence = "ACGCAGCAAUAUUACGUAGU"
measured_result = -2.76

[[record]]
residue_sequence = "UUGCAGCAAUAUUACGACUC"
measured_result = -1.2

[[record]]
residue_sequence = "AUUCAGCAAUAUUACGGACG"
measured_result = -0.626

[[record]]
residue_sequence = "UGAGAGCAAUAUUACGGUUA"
measured_result = -1.14

[[record]]
residue_sequence = "AAGAAGCAAUAUUACGUCCU"
measured_result = -0.0351

[[record]]
residue_sequence = "UUAGAGCAAUAUUACGCGAG"
measured_result = -0.443

[[record]]
residue_sequence = "UUUCAGCAAUAUUACGGGUA"
measured_result = -0.909

[[record]]
residue_sequence = "GUCCAGCAAUAUUACGUCAA"
measured_result = -1.23

[[record]]
residue_sequence = "ACUAAGCAAUAUUACGCUAG"
measured_result = -2.68

[[record]]
residue_sequence = "AUUAAGCAAUAUUACGGCGA"
measured_result = -0.67

[[record]]
residue_sequence = "UGCCAGCAAUAUUACGGAAG"
measured_result = -2.55

[[record]]
residue_sequence = "UAACAGCAAUAUUACGGCAC"
measured_result = -2.47

[[record]]
residue_sequence = "GCUGAGCAAUAUUACGUUAG"
measured_result = -2.86

[[record]]
residue_sequence = "CGUGAGCAAUAUUACGUAGA"
measured_result = -3.22

[[record]]
residue_sequence = "AAUAAGCAAUAUUACGUCAG"
measured_result = -3.34

[[record]]
residue_sequence = "AAGGAGCAAUAUUACGAUCG"
measured_result = -1.99

[[record]]
residue_sequence = "CCUCAGCAAUAUUACGACUC"
measured_result = -3.68

[[record]]
residue_sequence = "AUCAAGCAAUAUUACGAUUC"
measured_result = -2.14

[[record]]
residue_sequence = "CGUAAGCAAUAUUACGCUCC"
measured_result = -2.95

[[record]]
residue_sequence = "CGUCAGCAAUAUUACGACGU"
measured_result = -3.23

